molecular target: Carbonic anhydrase 1 (Homo sapiens, UniProt P00915)
Sequence (P00915 whole entry): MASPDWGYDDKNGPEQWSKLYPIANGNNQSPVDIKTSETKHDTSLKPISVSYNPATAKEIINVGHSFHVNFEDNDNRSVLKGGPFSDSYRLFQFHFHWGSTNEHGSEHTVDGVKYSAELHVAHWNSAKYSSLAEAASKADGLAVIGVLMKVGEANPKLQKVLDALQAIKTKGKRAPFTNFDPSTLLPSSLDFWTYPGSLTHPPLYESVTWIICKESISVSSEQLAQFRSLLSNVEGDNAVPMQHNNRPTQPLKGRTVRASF
endpoint_label: Ki

State, for Carbonic anhydrase 1 (Homo sapiens, UniProt P00915), measured Ki of the compound listed here: NS(=O)(=O)c1cccc(/N=C/c2ccc(/C=N/c3cccc(S(N)(=O)=O)c3)o2)c1 > 10 µM

###

Overview of recorded pKi for various compounds
molecular target: Carbonic anhydrase 9 (Homo sapiens, UniProt Q16790)
Friendly reminder that pKi comes from taking -log10 of the concentration in mol/L.

Worked examples follow.
NS(=O)(=O)c1ccc(CC/N=C/c2ccc(/C=N/CCc3ccc(S(N)(=O)=O)cc3)cc2)cc1 ... 6.58
NS(=O)(=O)c1nnc(/N=C/c2cccc(/C=N/c3nnc(S(N)(=O)=O)s3)c2)s1 ... 9.30
NS(=O)(=O)c1ccc(CC/N=C/c2cccc(/C=N/CCc3ccc(S(N)(=O)=O)cc3)c2)cc1 ... 6.50
NS(=O)(=O)c1ccc(CC/N=C/c2ccc(/C=N/CCc3ccc(S(N)(=O)=O)cc3)o2)cc1 ... 6.82
NS(=O)(=O)c1ccc(/N=C/c2ccccc2/C=N/c2ccc(S(N)(=O)=O)cc2)cc1 ... 7.66

Check the records and state pKi for NS(=O)(=O)c1cccc(/N=C/c2cccc(/C=N/c3cccc(S(N)(=O)=O)c3)c2)c1 6.17

Check the records and state pKi for NS(=O)(=O)c1ccc(/N=C/c2cccc(/C=N/c3ccc(S(N)(=O)=O)cc3)c2)cc1 7.03
